Reference source for all entries: patent US20100311648A1

target: T1, human melanocortin-4 receptor (human, UniProt P32245 1-332); experiment: [I125]-NDP-α-MSH competition, hMC4-R HEK-293 membranes
T1 construct: whole, on cells; functional assay: HEK293-T-REx-MC4-R cells induced with 0.1 or 10 ng/mL doxycycline; also called hMC4-R; MC4-R
T1 sequence (P32245 whole entry): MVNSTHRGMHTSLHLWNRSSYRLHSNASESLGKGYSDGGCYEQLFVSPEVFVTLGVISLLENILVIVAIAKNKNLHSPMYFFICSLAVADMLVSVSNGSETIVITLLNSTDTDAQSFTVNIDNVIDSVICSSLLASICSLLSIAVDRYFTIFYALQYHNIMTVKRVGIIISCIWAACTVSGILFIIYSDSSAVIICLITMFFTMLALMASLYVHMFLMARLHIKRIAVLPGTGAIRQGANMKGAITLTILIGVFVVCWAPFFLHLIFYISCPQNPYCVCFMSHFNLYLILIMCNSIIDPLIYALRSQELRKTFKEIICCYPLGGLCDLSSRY
Positions of bridges follow the written chain, without caps; N, C: chain ends. Non-standard residues stand in square brackets, D forms with d. dPhe(3,4-F2) = N[C@H](Cc1ccc(F)c(F)c1)C(=O)O; dPhe(4-CN) = N#Cc1ccc(C[C@@H](N)C(=O)O)cc1; Orn = NCCC[C@H](N)C(=O)O
Property: Ki (nM)

XDQXRWK (N-terminal Ac; D-Arg 1; D-Phe(3,4-diF) 4; lactam Asp 2-Lys 7; C-terminal NH2, also called No. 78) [Ac-D-Arg-cyclo(Asp-Gln-D-Phe(3,4-diF)-Arg-Trp-Lys)-NH2] :: 8

(I) XDQXRWK (N-terminal Ac; D-Arg 1; D-Phe(2-Cl) 4; lactam Asp 2-Lys 7; C-terminal NH2, also called No. 79) [Ac-D-Arg-cyclo(Asp-Gln-D-Phe(2-Cl)-Arg-Trp-Lys)-NH2]
(II) Ac-REE[dPhe(4-CN)]RW[Orn]-OH (lactam 2-7) [Ac-Arg-cyclo(Glu-Glu-D-Phe(4-CN)-Arg-Trp-Orn)-OH]
(III) Ac-R[Orn]N[dPhe(3,4-F2)]RWE-NH2 (lactam 2-7, also called No. 75) [Ac-Arg-cyclo(Orn-Asn-D-Phe(3,4-diF)-Arg-Trp-Glu)-NH2]
[ask] Put the items in sequence by Ki, from largest down. In your reply, arrange the labels in the requested order.
[reply] II, I, III
(II: 1090 nM, I: 10 nM, III: 3 nM)
